- Study System: Serine/threonine-protein kinase MARK1 (Homo sapiens)
- Assay Context: at 0.1 µM
- Description: GSK_PKIS: MARK1 mean inhibition at 0.1 uM [Nanosyn]
Measure: inhibition (%)
All answers are understood in %, so give the number only.

>  <Molecule>
CCN1CCC(C(=O)Nc2n[nH]c3nnc(-c4cccc(F)c4F)cc23)CC1

>  <Unit>
%

>  <Reported Result>
0.92

$$$$
>  <Molecule>
CC1(C)CC(n2cnc(-c3ccc(F)cc3)c2-c2ccnc(N)n2)CC(C)(C)N1

>  <Unit>
%

>  <Reported Result>
1.88

$$$$
>  <Molecule>
COc1cc(N2CCN(C(C)C)CC2)ccc1Nc1nc(Nc2cccc(F)c2C(=O)O)c2cc[nH]c2n1

>  <Unit>
%

>  <Reported Result>
3.19

$$$$
>  <Molecule>
CS(=O)(=O)CCNCc1ccoc1-c1ccc2ncnc(Nc3ccc(OCc4ccccc4)cc3)c2c1

>  <Unit>
%

>  <Reported Result>
-0.89

$$$$
>  <Molecule>
CS(=O)(=O)Nc1ccc(-c2ccc3c(NC(=O)C4CC4)n[nH]c3c2)cc1

>  <Unit>
%

>  <Reported Result>
2.32

$$$$
>  <Molecule>
O=C(O[C@H]1CN[C@H](C#Cc2cc3ncnc(Nc4ccc5c(cnn5Cc5ccccc5)c4)c3s2)C1)N1CCOCC1

>  <Unit>
%

>  <Reported Result>
0.33

$$$$

Problem: inhibition for NC(=O)c1ccc2c(-c3ccnc(NCCCO)n3)c(-c3ccc(F)cc3)nn2c1 ?
Result: 4.33

Problem: inhibition for CNC(=O)c1ncccc1Nc1nc(Nc2cc3c(cc2OC)CCCN3C(=O)CN(C)C)nc2[nH]ccc12 ?
Result: 4.87

Problem: inhibition for CC1=C(C(=O)Nc2ccc3[nH]nc(C)c3c2)C(c2ccc(C(F)(F)F)cc2)CC(=O)N1 (centres undefined) ?
Result: 1.38

Problem: inhibition for O=C(O[C@H]1CN[C@H](C#Cc2cc3ncnc(Nc4ccc(OCc5cccc(F)c5)c(Cl)c4)c3s2)C1)N1CCOCC1 ?
Result: 6.71

Problem: inhibition for OCCCNc1nccc(-c2c(-c3ccc(F)cc3)nn3cc(C(F)(F)F)ccc23)n1 ?
Result: 0.69

Problem: inhibition for CS(=O)(=O)Nc1ccc(-c2cc(-c3ccccc3)cc(C(N)=O)c2N)cc1 ?
Result: 0.39

Problem: inhibition for CCCNc1cccc(-n2ncc3c(N/N=C/c4ccncc4)ncnc32)c1 ?
Result: 2.01

Problem: inhibition for O=C1Nc2ccccc2/C1=C1\CCc2cc(O)ccc21 ?
Result: 8.64

Problem: inhibition for COc1cc(N2CCN(C(C)C)CC2)ccc1Nc1nc(Nc2cccc3ncccc23)c2cc[nH]c2n1 ?
Result: 0.48

Problem: inhibition for CCn1c(-c2nonc2N)nc2cncc(C(=O)NCCNC)c21 ?
Result: 1.84

Problem: inhibition for NS(=O)(=O)c1ccc(N/N=C2\C(=O)Nc3ccc(C(=O)NCc4ccncc4)cc32)cc1 ?
Result: 7.5

Problem: inhibition for COC(=O)Nc1nc2cc(Oc3ccc(NC(=O)Nc4ccccc4)cc3)ccc2[nH]1 ?
Result: 2.28

---

- Study System: MAP kinase-activated protein kinase 3 (Homo sapiens) (UniProt Q16644)
- Sequence (Q16644 whole entry, looked up): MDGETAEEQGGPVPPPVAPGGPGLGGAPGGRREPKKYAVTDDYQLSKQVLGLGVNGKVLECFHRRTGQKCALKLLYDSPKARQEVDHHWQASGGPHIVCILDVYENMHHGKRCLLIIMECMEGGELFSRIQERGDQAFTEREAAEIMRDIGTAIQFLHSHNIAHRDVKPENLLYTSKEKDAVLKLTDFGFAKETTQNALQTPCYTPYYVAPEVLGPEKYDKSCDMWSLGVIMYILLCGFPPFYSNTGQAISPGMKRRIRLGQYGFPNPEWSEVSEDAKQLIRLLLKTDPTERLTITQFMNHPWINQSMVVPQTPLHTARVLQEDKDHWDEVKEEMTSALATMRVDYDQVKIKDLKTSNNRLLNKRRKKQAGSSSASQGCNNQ
- Assay Context: at 0.1 µM
- Description: GSK_PKIS: MAPKAPK3 mean inhibition at 0.1 uM [Nanosyn]
Measure: inhibition (%)
All answers are understood in %, so give the number only.

Below, 8 compounds whose answers are already recorded.
>  <Compound>
Cc1c2ccc(N(C)c3ccnc(Nc4cccc(S(N)(=O)=O)c4)n3)cc2nn1C

>  <inhibition (%)>
3.68

$$$$
>  <Compound>
O=C(O[C@H]1CN[C@H](C#Cc2cc3ncnc(Nc4ccc5c(cnn5Cc5ccccc5)c4)c3s2)C1)N1CCOCC1

>  <inhibition (%)>
0

$$$$
>  <Compound>
COc1ccc2ncn(-c3cc(O[C@H](C)c4ccccc4C(F)(F)F)c(C(N)=O)s3)c2c1

>  <inhibition (%)>
-0.9

$$$$
>  <Compound>
CC1=C(C(=O)Nc2ccc3[nH]nc(C)c3c2)C(c2ccc(C(F)(F)F)cc2)CC(=O)N1 (centres undefined)

>  <inhibition (%)>
0.91

$$$$
>  <Compound>
CCN1CCC(C(=O)Nc2n[nH]c3nnc(-c4cccc(F)c4F)cc23)CC1

>  <inhibition (%)>
-0.17

$$$$
>  <Compound>
CCn1c(-c2nonc2N)nc2cncc(C(=O)NCCNC)c21

>  <inhibition (%)>
3.52

$$$$
>  <Compound>
Cc1ccc(-c2cc3c(NC(=O)C4CC4)ncnc3o2)cc1

>  <inhibition (%)>
2.67

$$$$
>  <Compound>
c1ccc(-c2n[nH]cc2-c2ccnc(-c3ccc(OCCn4ccnc4)cc3)c2)nc1

>  <inhibition (%)>
-3.24

$$$$

In the following, a different compound is considered.
Problem: inhibition for COc1ccc(-c2nn3ncccc3c2-c2ccnc(Nc3ccc(F)c(F)c3)n2)cc1 ?
Result: 16.8

---

- Study System: Serine/threonine-protein kinase Sgk2 (Homo sapiens) (UniProt Q9HBY8);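 note: each value is a mean percent inhibition of SGK2 from the GSK PKIS kinase screen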
- Sequence (Q9HBY8 whole entry): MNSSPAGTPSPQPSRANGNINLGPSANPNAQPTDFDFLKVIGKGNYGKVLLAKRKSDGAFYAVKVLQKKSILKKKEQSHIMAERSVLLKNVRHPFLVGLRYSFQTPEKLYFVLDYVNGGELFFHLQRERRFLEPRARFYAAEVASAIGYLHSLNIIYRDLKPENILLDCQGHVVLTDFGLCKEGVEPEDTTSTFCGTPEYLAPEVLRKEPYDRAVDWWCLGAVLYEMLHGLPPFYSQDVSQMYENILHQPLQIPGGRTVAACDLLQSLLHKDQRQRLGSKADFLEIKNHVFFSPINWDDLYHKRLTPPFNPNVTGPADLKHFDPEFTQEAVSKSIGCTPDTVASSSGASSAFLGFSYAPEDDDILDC
- Assay Context: at 0.1 µM
Reported inhibition by item:
All answers are understood in %, so give the number only.

>  <Compound>
COc1cccc(-n2ncc3c(N/N=C/c4ccc(C(=O)NCCN(C)C)cc4)ncnc32)c1

>  <inhibition, %>
6.05

$$$$

Problem: inhibition for CC1=C(C(=O)Nc2ccc3[nH]nc(C)c3c2)C(c2ccc(C(F)(F)F)cc2)CC(=O)N1 (stereo not given) ?
Result: 0.38

Problem: inhibition for COc1ccc2ncn(-c3cc(O[C@H](C)c4ccccc4C(F)(F)F)c(C(N)=O)s3)c2c1 ?
Result: -1.23

Problem: inhibition for CC(C)c1ccc(-c2cc(-c3c[nH]nc3-c3ccccn3)ccn2)cc1 ?
Result: 3.97

Problem: inhibition for CS(=O)(=O)Nc1ccc(-c2cc(-c3ccccc3)cc(C(N)=O)c2N)cc1 ?
Result: 9.08

---

- Study System: Tyrosine-protein kinase receptor TYRO3 (Homo sapiens) (UniProt Q06418);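 note: reported percentages are averaged inhibition values of TYRO3 kinase activity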
- Sequence (Q06418 whole entry): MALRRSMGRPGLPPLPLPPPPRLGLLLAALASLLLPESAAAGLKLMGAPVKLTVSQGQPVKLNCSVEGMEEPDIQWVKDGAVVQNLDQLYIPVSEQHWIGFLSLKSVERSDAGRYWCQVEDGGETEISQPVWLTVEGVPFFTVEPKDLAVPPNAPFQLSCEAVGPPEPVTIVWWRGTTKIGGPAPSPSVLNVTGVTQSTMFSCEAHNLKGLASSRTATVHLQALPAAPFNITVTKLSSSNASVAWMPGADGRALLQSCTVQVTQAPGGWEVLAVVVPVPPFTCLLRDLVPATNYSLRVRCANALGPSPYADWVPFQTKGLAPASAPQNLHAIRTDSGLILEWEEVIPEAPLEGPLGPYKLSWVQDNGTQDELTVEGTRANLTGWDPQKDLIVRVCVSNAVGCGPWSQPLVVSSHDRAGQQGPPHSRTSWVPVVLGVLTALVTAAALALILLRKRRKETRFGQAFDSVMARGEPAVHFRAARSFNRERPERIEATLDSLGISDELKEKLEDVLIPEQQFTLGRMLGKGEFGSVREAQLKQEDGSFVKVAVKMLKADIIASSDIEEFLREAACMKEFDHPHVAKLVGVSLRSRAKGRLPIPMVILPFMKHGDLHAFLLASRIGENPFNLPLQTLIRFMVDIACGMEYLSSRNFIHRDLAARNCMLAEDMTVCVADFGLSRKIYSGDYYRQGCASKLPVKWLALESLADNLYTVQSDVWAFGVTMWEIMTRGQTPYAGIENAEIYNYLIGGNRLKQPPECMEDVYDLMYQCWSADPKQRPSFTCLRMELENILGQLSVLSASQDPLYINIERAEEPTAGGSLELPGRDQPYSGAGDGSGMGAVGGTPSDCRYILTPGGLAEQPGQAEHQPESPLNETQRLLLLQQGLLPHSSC
- Assay Context: at 0.1 µM
Measure: inhibition (%)
All answers are understood in %, so give the number only.

Below, 3 molecules whose answers are already recorded.
>  <Smiles>
COc1cc(N2CCN(C(C)C)CC2)ccc1Nc1nc(Nc2cccc(F)c2C(=O)O)c2cc[nH]c2n1

>  <inhibition (%)>
2.73

$$$$
>  <Smiles>
Cn1c(-c2nonc2N)nc2cnccc21

>  <inhibition (%)>
1.78

$$$$
>  <Smiles>
Fc1ccc(Nc2nccc(-c3c(-c4ccc(C(F)(F)F)cc4)nn4ncccc34)n2)cc1F

>  <inhibition (%)>
3.71

$$$$

Problem: inhibition for N#Cc1ccc2c(-c3ccnc(NC4CC4)n3)c(-c3ccc(F)cc3)nn2c1 ?
Result: -1.24

Problem: inhibition for CN(c1ccc(NC(=O)NCCN2CCOCC2)cc1)c1ccnc(Nc2ccc(CS(C)(=O)=O)cc2)n1 ?
Result: 3.48

Problem: inhibition for CS(=O)(=O)Nc1ccc(-c2ccc3c(NC(=O)C4CC4)n[nH]c3c2)cc1 ?
Result: 2.75

Problem: inhibition for CCN1CCC(C(=O)Nc2n[nH]c3nnc(-c4cccc(F)c4F)cc23)CC1 ?
Result: -1.35

Problem: inhibition for Cc1ccc(-c2cc3c(NC(=O)C4CC4)ncnc3o2)cc1 ?
Result: 9.35

Problem: inhibition for FC(F)(F)CNc1nccc(-c2cnn3ncccc23)n1 ?
Result: 0.93

Problem: inhibition for N#Cc1cccc(Nc2ncc(-c3ccccc3)o2)c1 ?
Result: 1.76

---

- Study System: Protein kinase C beta type (Homo sapiens);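 note: measured against the PKC-beta2 splice variant, with values reported as mean percent inhibition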
- Assay Context: at 0.1 µM
- Description: GSK_PKIS: PKC-beta2 (splice variant) mean inhibition at 0.1 uM [Nanosyn]
Reported inhibition by item:
All answers are understood in %, so give the number only.

>  <Smiles>
CC1(C)CC(n2cnc(-c3ccc(F)cc3)c2-c2ccnc(N)n2)CC(C)(C)N1

>  <Unit>
%

>  <inhibition>
1.08

$$$$
>  <Smiles>
NS(=O)(=O)c1cccc(N/C=C2\C(=O)Nc3ccccc32)c1

>  <Unit>
%

>  <inhibition>
1.9

$$$$
>  <Smiles>
COc1cccc(Nc2nccc(-c3cnn4ncccc34)n2)c1

>  <Unit>
%

>  <inhibition>
0.37

$$$$
>  <Smiles>
COc1cc(N2CCN(C(C)C)CC2)ccc1Nc1nc(Nc2cccc3ncccc23)c2cc[nH]c2n1

>  <Unit>
%

>  <inhibition>
-0.21

$$$$
>  <Smiles>
Fc1cccc(COc2ccc(Nc3ncncc3C#Cc3ccccc3)cc2Cl)c1

>  <Unit>
%

>  <inhibition>
0.66

$$$$
>  <Smiles>
CS(=O)(=O)CCNCc1ccc(-c2ccc3ncnc(Nc4ccc(OCc5ccccc5)cc4)c3c2)o1

>  <Unit>
%

>  <inhibition>
0.51

$$$$
>  <Smiles>
NS(=O)(=O)c1ccc(N/N=C2\C(=O)Nc3ccc(C(=O)NCc4ccncc4)cc32)cc1

>  <Unit>
%

>  <inhibition>
1.7

$$$$
>  <Smiles>
COc1ccc2ncn(-c3cc(O[C@H](C)c4ccccc4C(F)(F)F)c(C(N)=O)s3)c2c1

>  <Unit>
%

>  <inhibition>
-0.24

$$$$

Problem: inhibition for OCCCNc1nccc(-c2c(-c3ccc(F)cc3)nn3cc(C(F)(F)F)ccc23)n1 ?
Result: 1.5

Problem: inhibition for c1ccc(-c2n[nH]cc2-c2ccnc(-c3ccc(OCCn4ccnc4)cc3)c2)nc1 ?
Result: 0.85

Problem: inhibition for CCn1c(-c2nonc2N)nc2cncc(C(=O)NCCNC)c21 ?
Result: 21.1

The reported numbers originate from ChEMBL document CHEMBL1961873.
